# Test system: Vero E6
# method: inhibition of SARS-CoV-2-induced cytopathic effect relative to cell and virus controls; higher = more antiviral protection
# test-settings: 0.137174 µM; 72 h; virus: SARS-CoV-2 propagated original strain, 100 TCID50; assay detail: infected
Structures can show the parent of a compound that is named as a salt.
measurement-kind: inhibition of SARS-CoV-2-induced cytopathic effect

                                   compound  experimental_value
0  CCC(CC)COC(=O)[C@H](C)N[P@](=O)(OC[C@H]1O[C@@](C#N)(c2ccc3c(N)ncnn23)[C@H](O)[C@@H]1O)Oc1ccccc1               1.45%
1  CCC[C@H](NC(=O)[C@@H]1[C@H]2CCC[C@H]2CN1C(=O)[C@@H](NC(=O)[C@@H](NC(=O)c1cnccn1)C1CCCCC1)C(C)(C)C)C(=O)C(=O)NC1CC1              -0.93%
2  O=C(/C=C\n1cnc(-c2cc(C(F)(F)F)cc(C(F)(F)F)c2)n1)NNc1cnccn1 [selinexor]              -3.81%
3  Cc1ccc(NC(=O)c2ccc(CN3CCN(C)CC3)cc2)cc1Nc1nc(-c2cccnc2)cs1              0.458%
4  Cc1ccc(NC(=O)c2ccc(CN3CCN(C)CC3)cc2)cc1Nc1nccc(-c2cccnc2)n1 [imatinib mesylate]              -1.94%

###

# Test system: Vero E6
# method: inhibition of SARS-CoV-2-induced cytopathic effect relative to cell and virus controls; higher = more antiviral protection
# test-settings: 0.00508053 µM; 72 h; virus: SARS-CoV-2 propagated original strain, 100 TCID50; assay detail: infected
Structures can show the parent of a compound that is named as a salt.
measurement-kind: inhibition of SARS-CoV-2-induced cytopathic effect

                                   compound  experimental_value
0  Cc1ccc(NC(=O)c2ccc(CN3CCN(C)CC3)cc2)cc1Nc1nccc(-c2cccnc2)n1 [imatinib mesylate]              -1.02%
1  CCC[C@H](NC(=O)[C@@H]1[C@H]2CCC[C@H]2CN1C(=O)[C@@H](NC(=O)[C@@H](NC(=O)c1cnccn1)C1CCCCC1)C(C)(C)C)C(=O)C(=O)NC1CC1             -0.629%
2  O=C(/C=C\n1cnc(-c2cc(C(F)(F)F)cc(C(F)(F)F)c2)n1)NNc1cnccn1 [selinexor]              -1.85%
3  CCC(CC)COC(=O)[C@H](C)N[P@](=O)(OC[C@H]1O[C@@](C#N)(c2ccc3c(N)ncnn23)[C@H](O)[C@@H]1O)Oc1ccccc1              -0.59%
4  Cc1ccc(NC(=O)c2ccc(CN3CCN(C)CC3)cc2)cc1Nc1nc(-c2cccnc2)cs1               2.14%

###

# Tested on: Vero E6
# method: cytotoxicity relative to untreated cell control; higher = more toxic
# test-settings: 100 µM; 72 h; assay detail: uninfected
Where a name gives a salt, the structure may show the parent alone.

compound	cytotoxicity (%)
O=C(/C=C\n1cnc(-c2cc(C(F)(F)F)cc(C(F)(F)F)c2)n1)NNc1cnccn1 [selinexor]	99.7
Cc1ccc(NC(=O)c2ccc(CN3CCN(C)CC3)cc2)cc1Nc1nc(-c2cccnc2)cs1 [masitinib]	99.8
CCC(CC)COC(=O)[C@H](C)N[P@](=O)(OC[C@H]1O[C@@](C#N)(c2ccc3c(N)ncnn23)[C@H](O)[C@@H]1O)Oc1ccccc1 [remdesivir]	59.6
Cc1ccc(NC(=O)c2ccc(CN3CCN(C)CC3)cc2)cc1Nc1nccc(-c2cccnc2)n1 [imatinib mesylate]	99.8
CCC[C@H](NC(=O)[C@@H]1[C@H]2CCC[C@H]2CN1C(=O)[C@@H](NC(=O)[C@@H](NC(=O)c1cnccn1)C1CCCCC1)C(C)(C)C)C(=O)C(=O)NC1CC1 [telaprevir]	80.5

###

# System: Vero E6
# method: inhibition of SARS-CoV-2-induced cytopathic effect relative to cell and virus controls; higher = more antiviral protection
# test-settings: 0.0457247 µM; 72 h; virus: SARS-CoV-2 propagated original strain, 100 TCID50; assay detail: infected
Where a name gives a salt, the structure may show the parent alone.
measurement-kind: inhibition of SARS-CoV-2-induced cytopathic effect (%)

compound	unit-abbrev	experimental-value
CCC[C@H](NC(=O)[C@@H]1[C@H]2CCC[C@H]2CN1C(=O)[C@@H](NC(=O)[C@@H](NC(=O)c1cnccn1)C1CCCCC1)C(C)(C)C)C(=O)C(=O)NC1CC1 [telaprevir]	%	0.129
Cc1ccc(NC(=O)c2ccc(CN3CCN(C)CC3)cc2)cc1Nc1nc(-c2cccnc2)cs1 [masitinib]	%	0.66
Cc1ccc(NC(=O)c2ccc(CN3CCN(C)CC3)cc2)cc1Nc1nccc(-c2cccnc2)n1 [imatinib mesylate]	%	-1.84
CCC(CC)COC(=O)[C@H](C)N[P@](=O)(OC[C@H]1O[C@@](C#N)(c2ccc3c(N)ncnn23)[C@H](O)[C@@H]1O)Oc1ccccc1 [remdesivir]	%	-0.335
O=C(/C=C\n1cnc(-c2cc(C(F)(F)F)cc(C(F)(F)F)c2)n1)NNc1cnccn1 [selinexor]	%	-4.3

###

As shown below, each of these compounds has a reported inhibition of SARS-CoV-2-induced cytopathic effect value.
# Tested on: Vero E6
# method: inhibition of SARS-CoV-2-induced cytopathic effect relative to cell and virus controls; higher = more antiviral protection
# test-settings: 1.11111 µM; 72 h; virus: SARS-CoV-2 propagated original strain, 100 TCID50; assay detail: infected
Counter-ions that a name gives are not always drawn.
measurement-kind: inhibition of SARS-CoV-2-induced cytopathic effect (%)

>>> print(df.to_string())
                                   compound  unit_abbrev  experimental_value
0  CCS(=O)(=O)N1CC(CC#N)(n2cc(-c3ncnc4[nH]ccc34)cn2)C1            %               -1.55
1  CCc1c2c(nc3ccc(O)cc13)-c1cc3c(c(=O)n1C2)COC(=O)[C@]3(O)CC            %               -10.4
2  N=C(N)Nc1ccc(C(=O)Oc2ccc3cc(C(=N)N)ccc3c2)cc1 [nafamostat mesylate]            %               0.841
3               O=c1c2ccccc2[se]n1-c1ccccc1            %                1.82
4  O=c1nc(NO)ccn1[C@@H]1O[C@H](CO)[C@@H](O)[C@H]1O            %                57.5

###

As shown below, each of these molecules has a reported cytotoxicity value.
# System: Vero E6
# method: cytotoxicity relative to untreated cell control; higher = more toxic
# test-settings: 0.0411523 µM; 72 h; assay detail: uninfected
Counter-ions that a name gives are not always drawn.
measurement-kind: cytotoxicity (%)

In [3]: df
Out[3]:
                                   molecule  measurement_kind  unit_abbrev  experimental_value
0  CCS(=O)(=O)N1CC(CC#N)(n2cc(-c3ncnc4[nH]ccc34)cn2)C1 [baricitinib]      cytotoxicity            %               -17.8
1  N=C(N)Nc1ccc(C(=O)Oc2ccc3cc(C(=N)N)ccc3c2)cc1 [nafamostat mesylate]      cytotoxicity            %               -7.66
2  CCc1c2c(nc3ccc(O)cc13)-c1cc3c(c(=O)n1C2)COC(=O)[C@]3(O)CC [SN-38]      cytotoxicity            %                5.49
3  O=c1nc(NO)ccn1[C@@H]1O[C@H](CO)[C@@H](O)[C@H]1O [EIDD-1931]      cytotoxicity            %               -10.5
4     O=c1c2ccccc2[se]n1-c1ccccc1 [ebselen]      cytotoxicity            %               -10.3

###

As shown below, each of these compounds has a reported cytotoxicity value.
# Test system: Vero E6
# method: cytotoxicity relative to untreated cell control; higher = more toxic
# test-settings: 0.00457247 µM; 72 h; assay detail: uninfected
Structures can show the parent of a compound that is named as a salt.
measurement-kind: cytotoxicity (%)

>>> df
                                   compound  unit_abbrev  experimental_value
0               O=c1c2ccccc2[se]n1-c1ccccc1            %               -3.63
1  N=C(N)Nc1ccc(C(=O)Oc2ccc3cc(C(=N)N)ccc3c2)cc1 [nafamostat mesylate]            %                  -6
2  O=c1nc(NO)ccn1[C@@H]1O[C@H](CO)[C@@H](O)[C@H]1O            %               -16.2
3  CCc1c2c(nc3ccc(O)cc13)-c1cc3c(c(=O)n1C2)COC(=O)[C@]3(O)CC            %               -9.11
4  CCS(=O)(=O)N1CC(CC#N)(n2cc(-c3ncnc4[nH]ccc34)cn2)C1            %               -20.6
